Each recorded value in this set is attributed to ChEMBL document CHEMBL1201862.

# System: KM12
# experiment: NCI tumour cell line growth inhibition, 48 h
Calls of active or inactive are those of the source. Rule as the data show it: active = GI50 up to about 1.1 µM and inactive = higher.
Labels: active, inactive

- CC1CCN(c2nnc(Cl)cc2C(=O)c2ccccc2)CC1: inactive
- CC(C)C/C=C/C1=NN(c2cccc(S(=O)(=O)O)c2)C2(C1)SCC(=O)N2c1nc2ccccc2s1 (configuration not stated): inactive
- Cc1ccc(C(=O)Cc2nc3c([nH]c2=O)c(C)nn3-c2ccccc2)c(C)c1: inactive
- Cc1ccnc2nc(N)ccc12: inactive
- Cc1nc2sccn2c1C(=O)NNC(N)=S: inactive
- CC#C[C@]1(O)CCC2[C@@H]3CCC4=CC(=O)CCC4=C3[C@@H](c3ccc(N(C)C)cc3)C[C@@]21C (some centres not stated): inactive
- O=C(O)C(F)(F)C(F)(F)C(F)(F)C(F)(F)C(F)(F)C(F)(F)C(F)(F)C(F)(F)F: inactive
- Cn1nc(-c2cccc(-c3nn(C)/c(=N\CCO)s3)n2)s/c1=N/CCO: inactive
- C=C(C)CNCC(=C)C.Oc1c(Cl)c(Cl)c(Cl)c(Cl)c1Cl: inactive
- CC(=O)C1=C(C)N2C(=NC3=C(CCc4ccccc43)C2c2cccc(Br)c2)S1 (configuration not stated): inactive
- COc1ccc(OCC(=O)O)c(C(=O)CCC(=O)O)c1: inactive
- O=c1oc2c3ccc4ccccc4c3n(CCN3CCOCC3)c2c2ccccc12: inactive
- CC/C(Cl)=N\OC(=O)Nc1ccc(F)cc1F: inactive
- CC1(C)C/N=C/C(C)(OCc2ccccc2)C(=O)NC(C)(C)C/N=C/C(C)(OCc2ccccc2)C(=O)N1 (configuration not stated): inactive
- O=C(NC(=O)c1ccccc1[N+](=O)[O-])Nc1ccc(Oc2ncc(Cl)cn2)c(C(F)(F)F)c1: active
- CC(=O)OCC1OC(Oc2cc(C)c(O)cc2C/C=C(\C)CC/C=C(\C)CC(=O)CC(C)C)C(O)C(OC(C)=O)C1OC(C)=O (configuration not stated): inactive
- CCC1(CC)C(=O)CC[C@@]2(C)C1=CC[C@H]1[C@@H]3CC[C@H](O)[C@@]3(C)CC[C@@H]12: inactive
- O=P1(c2ccccc2)C(c2ccccc2)CCC1c1ccccc1 (configuration not stated): inactive
- C=C(COC(C)=O)CC(/C=C(\C)CCC=C(C)C)OC(C)=O (configuration not stated): inactive
- COC(=O)C1C(O)C(C)C(O)C(C)(O)/C=C\C=C(C)C(=O)Nc2c(C)c(OC(C)=O)c3c(c2O)C(=O)C(C)=C2OCOC(=C23)C(C)=CC(C)(O)C(O)C(C)C1OC(C)=O (configuration not stated): inactive
- O=C(CC(O)(c1ccccc1)c1ccc(Cl)cc1)NC(=O)c1ccccc1O (configuration not stated): inactive
- c1ccc([P+](c2ccccc2)(c2ccccc2)c2ccc(-c3ccc([P+](c4ccccc4)(c4ccccc4)c4ccccc4)cc3)cc2)cc1: inactive
- COc1ccc(C(=O)Sc2c(-c3ccccc3)c(=O)n(-c3ccccc3)c(=S)n2-c2ccccc2)cc1: inactive
- CCOC(=O)C(NCc1cccc(C(F)(F)F)c1)(NC(=O)CC)C(F)(F)F (configuration not stated): inactive
- CN(C)CCOc1cc2c(c3ccccc13)-c1ccccc1C2=O: inactive
- CN(C)c1n/c(=N/Cc2cccnc2)ss1: inactive
- CC(=O)N1NC(c2ccccc2)=NC(=O)C1c1cc(C)c(O)c(C)c1 (configuration not stated): inactive
- NS(=O)(=O)c1ccc(-c2ccc([As](=O)(O)O)cc2)cc1: inactive
- Nc1cc2ncnn2c(SCC(=O)N/N=C/C(Br)=C\c2ccccc2)n1: inactive
- CCCCCCCCCCCCC(Br)C(=O)NCC(N)=O (configuration not stated): inactive
- CCOC(=O)C1=NN(c2ccc(Cl)cc2)C2=CC(C)=NN(C)C(=S)N21: inactive
- O=C(C1OC1c1ccc(Br)cc1O)C12CC3CC(CC(C3)C1)C2 (configuration not stated): inactive
